# assayed.system: CYP1A2 (Homo sapiens)
# Sequence (P05177 whole entry): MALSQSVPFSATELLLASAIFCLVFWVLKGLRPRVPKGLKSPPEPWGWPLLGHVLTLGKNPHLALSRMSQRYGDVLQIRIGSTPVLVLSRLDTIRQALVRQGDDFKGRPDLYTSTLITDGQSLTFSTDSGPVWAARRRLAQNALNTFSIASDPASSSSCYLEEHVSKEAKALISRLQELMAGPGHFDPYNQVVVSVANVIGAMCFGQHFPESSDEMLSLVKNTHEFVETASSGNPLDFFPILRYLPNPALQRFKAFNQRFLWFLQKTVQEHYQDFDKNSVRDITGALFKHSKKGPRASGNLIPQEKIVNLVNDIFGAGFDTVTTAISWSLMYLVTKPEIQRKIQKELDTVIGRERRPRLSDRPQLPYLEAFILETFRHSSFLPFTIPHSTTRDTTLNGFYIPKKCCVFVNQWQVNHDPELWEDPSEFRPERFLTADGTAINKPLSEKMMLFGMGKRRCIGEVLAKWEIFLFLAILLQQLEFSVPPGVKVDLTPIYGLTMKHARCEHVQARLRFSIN
# assay.info: Inhibition of human CYP1A2 at 1 uM
# Type: ADME
Each entry below carries its recorded inhibition at 1 µM.
observed.property: inhibition at 1 µM (%)

entry_smiles=COc1cc(Sc2c(-n3ccnc3)[nH]c3ccccc23)cc(OC)c1OC sign== number=22.9
entry_smiles=COc1cc(Sc2c(-n3cncn3)[nH]c3ccccc23)cc(OC)c1OC sign=< number=5
entry_smiles=COc1cc(Sc2c(-c3ccncc3)[nH]c3ccccc23)cc(OC)c1OC sign== number=14.5
entry_smiles=COc1cc(Sc2c(-c3cccnc3)[nH]c3ccccc23)cc(OC)c1OC sign== number=23.4

* * *

# assayed.system: CYP3A4 (Homo sapiens)
# Sequence (P08684 whole entry): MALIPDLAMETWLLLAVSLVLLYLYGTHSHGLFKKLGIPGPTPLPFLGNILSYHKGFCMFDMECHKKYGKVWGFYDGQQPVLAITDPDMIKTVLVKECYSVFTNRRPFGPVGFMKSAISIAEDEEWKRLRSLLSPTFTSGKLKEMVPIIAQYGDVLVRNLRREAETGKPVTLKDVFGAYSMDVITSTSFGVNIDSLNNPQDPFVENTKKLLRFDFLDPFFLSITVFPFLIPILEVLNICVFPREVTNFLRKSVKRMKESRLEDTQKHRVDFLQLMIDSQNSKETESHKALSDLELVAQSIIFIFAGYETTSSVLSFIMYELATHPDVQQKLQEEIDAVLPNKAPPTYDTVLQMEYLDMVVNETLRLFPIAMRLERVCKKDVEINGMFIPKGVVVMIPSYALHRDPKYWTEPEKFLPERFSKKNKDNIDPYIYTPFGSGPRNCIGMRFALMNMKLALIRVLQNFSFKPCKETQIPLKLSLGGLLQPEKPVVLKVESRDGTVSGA
# assay.info: Inhibition of human CYP3A4 at 1 uM
# Assay type: ADME
Each entry below carries its recorded inhibition at 1 µM.
observed.property: inhibition at 1 µM (%)

entry_smiles=COc1cc(Sc2c(-n3cncn3)[nH]c3ccccc23)cc(OC)c1OC observed_property="inhibition at 1 µM" uom=% number=51.4
entry_smiles=COc1cc(Sc2c(-c3ccncc3)[nH]c3ccccc23)cc(OC)c1OC observed_property="inhibition at 1 µM" uom=% number=58
entry_smiles=COc1cc(Sc2c(-n3ccnc3)[nH]c3ccccc23)cc(OC)c1OC observed_property="inhibition at 1 µM" uom=% number=94.5
entry_smiles=COc1cc(Sc2c(-c3cccnc3)[nH]c3ccccc23)cc(OC)c1OC observed_property="inhibition at 1 µM" uom=% number=76.4

* * *

# assayed.system: CYP2C19 (Homo sapiens, UniProt P33261)
# Sequence (P33261 whole entry): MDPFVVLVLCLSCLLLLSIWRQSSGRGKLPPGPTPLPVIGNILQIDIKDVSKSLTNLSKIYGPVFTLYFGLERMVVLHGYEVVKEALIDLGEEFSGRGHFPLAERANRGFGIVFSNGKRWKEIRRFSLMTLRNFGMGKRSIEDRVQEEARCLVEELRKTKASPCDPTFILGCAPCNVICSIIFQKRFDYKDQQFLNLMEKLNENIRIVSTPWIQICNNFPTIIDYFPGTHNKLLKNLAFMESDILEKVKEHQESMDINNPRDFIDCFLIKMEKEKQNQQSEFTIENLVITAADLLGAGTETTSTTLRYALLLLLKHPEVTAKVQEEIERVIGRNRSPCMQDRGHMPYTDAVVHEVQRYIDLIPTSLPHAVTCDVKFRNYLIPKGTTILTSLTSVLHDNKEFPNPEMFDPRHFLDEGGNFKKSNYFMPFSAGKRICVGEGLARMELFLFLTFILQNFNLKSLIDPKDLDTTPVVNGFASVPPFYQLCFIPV
# assay.info: Inhibition of human CYP2C19 at 1 uM
# Format: ADME
Each entry below carries its recorded inhibition at 1 µM.
observed.property: inhibition at 1 µM (%)

entry_smiles=COc1cc(Sc2c(-n3cncn3)[nH]c3ccccc23)cc(OC)c1OC observed_property="inhibition at 1 µM" uom=% number=83.9
entry_smiles=COc1cc(Sc2c(-c3ccncc3)[nH]c3ccccc23)cc(OC)c1OC observed_property="inhibition at 1 µM" uom=% number=100
entry_smiles=COc1cc(Sc2c(-c3cccnc3)[nH]c3ccccc23)cc(OC)c1OC observed_property="inhibition at 1 µM" uom=% number=84.9
entry_smiles=COc1cc(Sc2c(-n3ccnc3)[nH]c3ccccc23)cc(OC)c1OC observed_property="inhibition at 1 µM" uom=% number=82.5

* * *

# assayed.system: Tubulin (Homo sapiens) (UniProt P68371+Q9H4B7+P0DPH7+P68366+Q13509+Q71U36+P04350+Q3ZCM7+P07437+P68363+Q9BQE3+Q6PEY2+Q13885+Q9BVA1+Q9BUF5)
# assay.info: Displacement of [3H]colchicine from tubulin (unknown origin) at 5 uM after 10 mins by DEAE-cellulose filter method
# Assay type: protein-complex assay
observed.property: inhibition (%)

molecule=COc1cc(Sc2c(-n3cncn3)[nH]c3ccccc23)cc(OC)c1OC uom=% number=83
molecule=COc1cc(Sc2c(-n3ccnc3)[nH]c3ccccc23)cc(OC)c1OC uom=% number=92
molecule=COc1cc(Sc2c(-c3cccc(F)c3)[nH]c3ccccc23)cc(OC)c1OC uom=% number=75
molecule=COc1cc(Sc2c(-c3ccc(F)cc3)[nH]c3ccccc23)cc(OC)c1OC uom=% number=74
molecule=COc1cc(Sc2c(-c3ccncc3)[nH]c3ccccc23)cc(OC)c1OC uom=% number=91
molecule=COc1cc(Sc2c(-c3cn[nH]c3)[nH]c3ccccc23)cc(OC)c1OC uom=% number=81
molecule=COc1cc(Sc2c(-c3cccnc3)[nH]c3ccccc23)cc(OC)c1OC uom=% number=88
molecule=COc1cc(C(=O)c2c(-c3ccco3)[nH]c3ccccc23)cc(OC)c1OC uom=% number=78
molecule=COc1cc(Sc2c(-c3ccccc3F)[nH]c3ccccc23)cc(OC)c1OC uom=% number=74
molecule="COc1cc(C(O)c2c(-c3cc[nH]c3)[nH]c3ccccc23)cc(OC)c1OC (stereo not given)" uom=% number=70
molecule=COc1cc(Sc2c(-c3nccs3)[nH]c3ccccc23)cc(OC)c1OC uom=% number=72
molecule=COc1cc(C(=O)c2c(-c3cc[nH]c3)[nH]c3ccccc23)cc(OC)c1OC uom=% number=71
molecule=COc1cc(C(=O)c2c(-c3ccc[nH]3)[nH]c3ccccc23)cc(OC)c1OC uom=% number=79
molecule=COc1cc(C(=O)c2c(-c3ccoc3)[nH]c3ccccc23)cc(OC)c1OC uom=% number=77
molecule=COc1cc(Sc2c(-c3cc[nH]n3)[nH]c3ccccc23)cc(OC)c1OC uom=% number=78

* * *

# assayed.system: CYP2D6 (Homo sapiens)
# Sequence (P10635 whole entry): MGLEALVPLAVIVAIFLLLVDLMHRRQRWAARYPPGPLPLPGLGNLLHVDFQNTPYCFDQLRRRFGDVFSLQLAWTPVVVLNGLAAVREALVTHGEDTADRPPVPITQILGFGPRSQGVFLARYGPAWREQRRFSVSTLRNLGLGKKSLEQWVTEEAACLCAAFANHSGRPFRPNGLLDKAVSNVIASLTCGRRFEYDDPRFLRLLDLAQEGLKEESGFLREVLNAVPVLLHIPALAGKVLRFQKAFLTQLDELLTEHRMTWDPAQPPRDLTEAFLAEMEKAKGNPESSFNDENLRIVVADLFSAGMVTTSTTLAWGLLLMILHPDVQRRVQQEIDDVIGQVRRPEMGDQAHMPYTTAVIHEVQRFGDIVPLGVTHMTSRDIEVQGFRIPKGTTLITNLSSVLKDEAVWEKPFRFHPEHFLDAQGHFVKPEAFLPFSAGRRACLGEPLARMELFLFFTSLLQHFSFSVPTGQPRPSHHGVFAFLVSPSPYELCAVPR
# assay.info: Inhibition of human CYP2D6 at 1 uM
# Format: ADME
observed.property: inhibition at 1 µM (%)

entry_smiles=COc1cc(Sc2c(-c3ccncc3)[nH]c3ccccc23)cc(OC)c1OC assayed_system="CYP2D6 (Homo sapiens)" uom=% sign== number=43.1
entry_smiles=COc1cc(Sc2c(-n3cncn3)[nH]c3ccccc23)cc(OC)c1OC assayed_system="CYP2D6 (Homo sapiens)" uom=% sign=< number=5
entry_smiles=COc1cc(Sc2c(-n3ccnc3)[nH]c3ccccc23)cc(OC)c1OC assayed_system="CYP2D6 (Homo sapiens)" uom=% sign== number=10.6

* * *

# assayed.system: UniProtKB P11712
# Sequence (P11712 whole entry): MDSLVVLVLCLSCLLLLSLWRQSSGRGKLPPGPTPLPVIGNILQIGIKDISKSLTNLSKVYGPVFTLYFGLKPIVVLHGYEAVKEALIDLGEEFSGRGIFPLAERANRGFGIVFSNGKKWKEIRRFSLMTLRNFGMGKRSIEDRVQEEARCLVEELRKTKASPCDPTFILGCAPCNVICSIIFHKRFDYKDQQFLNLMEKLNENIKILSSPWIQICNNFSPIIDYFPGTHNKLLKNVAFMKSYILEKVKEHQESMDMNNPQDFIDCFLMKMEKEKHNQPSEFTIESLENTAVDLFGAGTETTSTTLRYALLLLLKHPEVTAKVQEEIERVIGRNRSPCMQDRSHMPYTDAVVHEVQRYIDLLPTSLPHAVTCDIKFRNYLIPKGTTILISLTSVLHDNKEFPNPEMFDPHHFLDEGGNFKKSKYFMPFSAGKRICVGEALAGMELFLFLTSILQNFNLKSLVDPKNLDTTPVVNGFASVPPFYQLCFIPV
# assay.info: Inhibition of human CYP2C9 at 1 uM
# Type: ADME
observed.property: inhibition at 1 µM (%)

entry_smiles=COc1cc(Sc2c(-c3ccncc3)[nH]c3ccccc23)cc(OC)c1OC assayed_system="UniProtKB P11712" number=100
entry_smiles=COc1cc(Sc2c(-n3ccnc3)[nH]c3ccccc23)cc(OC)c1OC assayed_system="UniProtKB P11712" number=95.9
entry_smiles=COc1cc(Sc2c(-n3cncn3)[nH]c3ccccc23)cc(OC)c1OC assayed_system="UniProtKB P11712" number=93.1
entry_smiles=COc1cc(Sc2c(-c3cccnc3)[nH]c3ccccc23)cc(OC)c1OC assayed_system="UniProtKB P11712" number=102
